tgt: T1, human CCL21 (human, UniProt O00585 24-134)
T1 sequence: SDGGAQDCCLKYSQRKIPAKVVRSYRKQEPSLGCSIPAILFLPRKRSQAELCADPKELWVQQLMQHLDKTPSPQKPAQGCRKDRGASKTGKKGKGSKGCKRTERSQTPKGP
method summary: cell-based or functional assay
experimental readout: % inhibition of migration, recombinant hCCL21, H9 cells, IgG at 2uM (1st cell) (%)
Answers are plain numbers, in %.

// known answers, use as guide
binder: MOR06935_g3-23_g3j (antibody, V domains shown, also called QBP359; FW repaired germlined MOR06935) VH: EVQLLESGGGLVQPGGSLRLSCAASGFTFNSYSMSWVRQAPGKGLEWVSAISMEGYSKSYADSVKGRFTISRDNSKNTLYLQMNSLRAEDTAVYYCARGYGYYFDVWGQGTLVTVSS VL: SYELTQPLSVSVALGQTARITCGGDSIGSQYASWYQQKPGQAPVLVIYDDNERPSGIPERFSGSNSGNTATLTISRAQAGDEADYYCGSWDSNPTHVFGGGTKLTVLG
unit abbreviation: %
measurement: 100
--
binder: MOR08382_g3-23_gL6 (antibody, human IgG1, kappa, V domains shown) VH: EVQLLESGGGLVQPGGSLRLSCAASGFTFSSYWLNWVRQAPGKGLEWVSYISNQGDDTSYADSVKGRFTISRDNSKNTLYLQMNSLRAEDTAVYYCARDYQYIGDSFDIWGQGTLVTVSS VL: EIVLTQSPATLSLSPGERATLSCRASQYVSYVSLAWYQQKPGQAPRLLIYDASNRATGIPARFSGSGSGTDFTLTISSLEPEDFAVYYCQQYDDLSYTFGQGTKVEIKR
unit abbreviation: %
measurement: 97

Just so you know, measured % inhibition of migration, recombinant hCCL21, H9 cells, IgG at 2uM (1st cell) for MOR08378_g5-51_g2a2 (antibody, human IgG1, lambda, V domains shown) VH: EVQLVQSGAEVKKPGESLKISCKGSGYSFNNYWISWVRQMPGKGLEWMGIIDPTNSQTTYSPSFQGQVTISADKSISTAYLQWSSLKASDTAMYYCARDGYPIFDYWGQGTLVTVSS VL: QSALTQPASVSGSPGQSITISCTGTSSDLGGYNYVSWYQQHPGKAPKLMIYDVNYRPSGVSNRFSGSKSGNTASLTISGLQAEDEADYYCSSYTYYSNSGVFGGGTKLTVLG came out at 100
